molecular target: TetR mutant (Escherichia coli, UniProt P04483, H139W); construct: made in house; host or cells: E. coli Rosetta-gami(BL21), vector pET28a; assay: Surface plasmon resonance affinity, TetR mutant; type: binding; details: TetR mutant+Mg2+, SPR
Consider the following compounds; for each one, report its Dissociation rate constant (koff).

Input line: Fill in: Dissociation rate constant (koff) of `CN(C)[C@@H]1C(O)=C(C(N)=O)C(=O)[C@@]2(O)C(O)=C3C(=O)c4c(O)cccc4[C@@](C)(O)[C@H]3[C@H](O)[C@@H]12` is ___
Output line: 0.00012 s⁻¹

Input line: For `CN(C)[C@@H]1C(O)=C(C(N)=O)C(=O)[C@@]2(O)C(O)=C3C(=O)c4c(O)cccc4C[C@H]3C[C@@H]12` then?
Output line: 5.79e-06 s⁻¹

Input line: For `C[C@H]1c2cccc(O)c2C(=O)C2=C(O)[C@]3(O)C(=O)C(C(N)=O)=C(O)[C@@H](N(C)C)[C@@H]3[C@@H](O)[C@@H]21` then?
Output line: 0.000113 s⁻¹

Input line: For `CN(C)c1ccc(O)c2c1C[C@H]1C[C@H]3[C@H](N(C)C)C(O)=C(C(N)=O)C(=O)[C@@]3(O)C(O)=C1C2=O` then?
Output line: 3.19e-05 s⁻¹

Input line: For `CN(C)[C@@H]1C(O)=C(C(N)=O)C(=O)[C@@]2(O)C(O)=C3C(=O)c4c(O)ccc(Cl)c4[C@@H](O)[C@H]3C[C@@H]12` then?
Output line: 4.7e-06 s⁻¹

Input line: For `CN(C)[C@@H]1C(O)=C(C(=O)NCNCCCC[C@H](N)C(=O)O)C(=O)[C@@]2(O)C(O)=C3C(=O)c4c(O)cccc4[C@@](C)(O)[C@H]3C[C@@H]12` then?
Output line: 0.00011 s⁻¹

Input line: For `CN(C)[C@@H]1C(O)=C(C(N)=O)C(=O)[C@@]2(O)C(O)=C3C(=O)c4c(O)cccc4[C@@](C)(O)[C@H]3C[C@@H]12` then?
Output line: 0.000121 s⁻¹

Input line: For `CN(C)[C@@H]1C(O)=C(C(N)=O)C(=O)[C@@]2(O)C(O)=C3C(=O)c4c(O)ccc(Cl)c4[C@@](C)(O)[C@H]3C[C@@H]12` then?
Output line: 0.000404 s⁻¹

Input line: For `C=C1c2cccc(O)c2C(=O)C2=C(O)[C@]3(O)C(=O)C(C(N)=O)=C(O)[C@@H](N(C)C)[C@@H]3[C@@H](O)[C@H]12` then?
Output line: 5.59e-06 s⁻¹

Input line: For `CN(C)c1cc(NC(=O)CNC(C)(C)C)c(O)c2c1C[C@H]1C[C@H]3[C@H](N(C)C)C(O)=C(C(N)=O)C(=O)[C@@]3(O)C(O)=C1C2=O` then?
Output line: 1.78e-06 s⁻¹

---

Molecular target: natural TetR (Escherichia coli, UniProt P04483)
Construct: made in house
Assay: Surface plasmon resonance affinity, natural TetR
Type: binding
Details: TetR+Mg2+, SPR
Description: After the experiments, the association constant (Ka), the dissociation constant (Kd), and the equilibrium dissociation constant (KD = Kd/Ka) for each drug were calculated. For convenience in comparing their affinities, the absolute affinity constant (KA = […]) for each drug was also calculated.
Consider the following compounds; for each one, report its koff (dissociation rate constant).
In your response, put the unit directly after the numeric value.

Input line: Please tell me: koff (dissociation rate constant) of `CN(C)[C@@H]1C(O)=C(C(N)=O)C(=O)[C@@]2(O)C(O)=C3C(=O)c4c(O)cccc4C[C@H]3C[C@@H]12` , system natural TetR (Escherichia coli, UniProt P04483)?
Output line: 0.000162 s⁻¹

Input line: For `C[C@H]1c2cccc(O)c2C(=O)C2=C(O)[C@]3(O)C(=O)C(C(N)=O)=C(O)[C@@H](N(C)C)[C@@H]3[C@@H](O)[C@@H]21` then?
Output line: 0.0018 s⁻¹

Input line: For `C=C1c2cccc(O)c2C(=O)C2=C(O)[C@]3(O)C(=O)C(C(N)=O)=C(O)[C@@H](N(C)C)[C@@H]3[C@@H](O)[C@H]12` then?
Output line: 0.000162 s⁻¹
